All figures here come from ChEMBL document CHEMBL5058577.

# Tested on: Fibroblast
# Procedure summary: Multiplex assay against human fibroblast
# Assay type: toxicity, cell-based
# Condition label: 48 h, 1 µM, compound concentration 1 uM, replicate 2
Non-standard residues stand in square brackets, D forms with d. Residues, ends and D or L forms follow the SMILES beside them.
Please note: Population Membrane Permeable-Phenotype (%) exactly at 6% is condition not met. Only values below 6% get condition met.

molecule="CC(C)C[C@@H]1NC(=O)[C@@H](C(C)C)NC(=O)[C@@H]2CCCN2C(=O)[C@@H](CC(=O)O)NC(=O)[C@@H](Cc2c[nH]c3ccccc23)NC1=O [BQ-123] (cyclo(L[dW][dD]P[dV]))" cat="condition met"
molecule=C[C@@H]1CC(=O)Nc2cccc(-c3ccc4c(c3)c(-c3cnn(C)c3)nn4C)c2N1 cat="condition not met"
molecule="Cl.Cl.OCCOCCN1CCN(C(c2ccccc2)c2ccc(Cl)cc2)CC1 (configuration not stated) [HYDROXYZINE HYDROCHLORIDE]" cat="condition met"
molecule="CSc1nc(NC2CCCC2)c([N+](=O)[O-])c(NC2CCCC2)n1 [GS-39783]" cat="condition not met"
molecule=Cc1cc(O)c(-c2ccc([C@@H](C)CN(C)C)cc2)c2c1[nH]c(=O)c1sccc12 cat="condition met"
molecule="CCC(=O)OCC(=O)[C@@]1(OC(=O)CC)[C@@H](C)C[C@H]2[C@@H]3CCC4=CC(=O)C=C[C@]4(C)[C@@]3(Cl)[C@@H](O)C[C@@]21C [BECLOMETHASONE DIPROPIONATE]" cat="condition met"
